# Target Or System: Tyk2 (Homo sapiens, UniProt P29597)
# Construct: purchased Invitrogen
# Sequence (P29597 whole entry): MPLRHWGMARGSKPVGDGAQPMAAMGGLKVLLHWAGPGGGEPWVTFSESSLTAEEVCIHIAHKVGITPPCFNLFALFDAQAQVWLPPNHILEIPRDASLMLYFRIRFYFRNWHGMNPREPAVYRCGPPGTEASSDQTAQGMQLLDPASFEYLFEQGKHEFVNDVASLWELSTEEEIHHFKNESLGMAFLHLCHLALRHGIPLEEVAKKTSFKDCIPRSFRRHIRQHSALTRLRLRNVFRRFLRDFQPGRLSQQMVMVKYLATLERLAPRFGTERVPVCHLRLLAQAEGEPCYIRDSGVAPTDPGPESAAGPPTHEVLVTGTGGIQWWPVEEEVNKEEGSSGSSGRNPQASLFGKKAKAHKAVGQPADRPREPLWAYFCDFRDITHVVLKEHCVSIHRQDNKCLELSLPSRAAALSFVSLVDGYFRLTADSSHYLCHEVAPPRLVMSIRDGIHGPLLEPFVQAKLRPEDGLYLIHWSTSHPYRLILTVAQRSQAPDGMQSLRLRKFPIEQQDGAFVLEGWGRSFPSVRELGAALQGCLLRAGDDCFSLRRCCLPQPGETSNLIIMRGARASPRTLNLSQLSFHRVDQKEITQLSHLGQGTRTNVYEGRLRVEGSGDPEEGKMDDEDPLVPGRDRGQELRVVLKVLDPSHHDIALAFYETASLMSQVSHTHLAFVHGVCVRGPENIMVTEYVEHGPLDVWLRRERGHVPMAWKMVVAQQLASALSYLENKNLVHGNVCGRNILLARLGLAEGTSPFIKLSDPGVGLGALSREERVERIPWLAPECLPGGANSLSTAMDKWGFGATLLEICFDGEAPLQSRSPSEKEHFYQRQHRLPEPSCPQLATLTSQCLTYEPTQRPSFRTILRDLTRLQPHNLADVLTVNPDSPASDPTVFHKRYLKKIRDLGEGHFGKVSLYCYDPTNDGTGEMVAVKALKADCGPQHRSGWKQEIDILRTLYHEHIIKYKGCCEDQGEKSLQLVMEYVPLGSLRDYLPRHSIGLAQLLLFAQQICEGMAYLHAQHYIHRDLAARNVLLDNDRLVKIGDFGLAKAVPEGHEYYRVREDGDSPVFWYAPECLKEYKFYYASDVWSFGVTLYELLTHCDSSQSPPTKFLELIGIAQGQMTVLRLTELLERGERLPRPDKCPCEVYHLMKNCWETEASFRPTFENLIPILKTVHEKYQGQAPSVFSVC
# Test Description: Tyk2 enzyme inhibition test (LANCE method)
# Assay type: biochemical
# Condition Details: test compound 1 μM; read-out: Inhibitory rate (%) Tyk2 1 μM
Measurement Type: inhibition at 1 µM

Look up inhibition at 1 µM of N#Cc1cc(-c2nn(-c3c(F)cccc3F)c3c(Cl)c[nH]c(=O)c23)ccc1N1CCOCC1 and report it. 98%

Fill in reported inhibition at 1 µM for this entry: NS(=O)(=O)c1ccc(-c2nn(C3CCC(=O)CC3)c3cc[nH]c(=O)c23)cc1 96%

Answer with the recorded inhibition at 1 µM of CC(C)(C)n1nc(-c2csc(C(N)=O)c2)c2c(=O)[nH]ccc21 only. 97%

Return inhibition at 1 µM (reported value) for this compound: CCC(CC)n1cc(-c2csc(C#N)c2)c2c(=O)[nH]ccc21 93%
